# System: BaF3
# measurement_protocol: cells
# conditions_used: Mus musculus, BaF3, 72 h
# Description: Antiproliferative activity against mouse BaF3 cells harbouring xDFG (TRKA-G667C) mutation measured after 72 hrs by Cell-titer glo assay
readout_name: IC50 (nM)
# number only, unit nM dropped from output

Field request: IC50 | item: C[C@@H]1CCc2ncc(F)cc2[C@H]2CCCN2c2ccn3ncc(c3n2)C(=O)N1 [SELITRECTINIB]
124

Return reported IC50; argument: C[C@H]1CNC(=O)c2cnn3ccc(nc23)N[C@H](C)c2cc(F)ccc2O1 [REPOTRECTINIB]
15
